Hey, just so you know, these numbers are from patent US12150995B2.

# Tested On: IRAK4 (Homo sapiens, UniProt Q9NWZ3)
# Construct: endogenous in cells; host or cells: OCI-LY10
# Sequence (Q9NWZ3 1-460): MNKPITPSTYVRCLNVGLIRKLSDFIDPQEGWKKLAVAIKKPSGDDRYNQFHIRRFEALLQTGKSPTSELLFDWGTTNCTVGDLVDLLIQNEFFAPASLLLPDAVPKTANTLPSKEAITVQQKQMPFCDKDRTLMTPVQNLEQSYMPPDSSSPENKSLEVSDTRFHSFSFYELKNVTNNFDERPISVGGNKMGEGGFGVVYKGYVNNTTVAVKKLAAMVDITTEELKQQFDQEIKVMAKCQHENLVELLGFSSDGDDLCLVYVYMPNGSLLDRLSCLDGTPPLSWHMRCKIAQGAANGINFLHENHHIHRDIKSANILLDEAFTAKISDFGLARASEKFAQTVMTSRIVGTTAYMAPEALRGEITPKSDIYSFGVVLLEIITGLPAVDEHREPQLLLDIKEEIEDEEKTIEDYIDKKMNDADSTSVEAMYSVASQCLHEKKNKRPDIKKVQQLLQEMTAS
# Assay Overview: IRAK4 MSD Degradation in OCI-LY10
# Type: cell-based
# Protocol Conditions: OCI-LY10 cells, Meso Scale Discovery, incubated 4 to 24 hours
Quantity: DC50

**Query** Item `O=C1CCN(c2cncc3cc(N4CCN(C[C@H]5CC[C@H](n6cc7cc(NC(=O)c8cccc(C(F)(F)F)n8)ccc7n6)CC5)CC4)ccc23)C(=O)N1` : provide DC50
**Result** > 200 nM

**Query** Note DC50 for the compound shown: `COc1cc2nn([C@H]3CC[C@H](CN4C5CCC4CN(c4cccc6c(N7CCC(=O)NC7=O)cncc46)C5)CC3)cc2cc1NC(=O)c1cccc(C(F)(F)F)n1`
**Result** < 10 nM

**Query** Using known records, supply DC50 for O=C1CCC(N2C(=O)c3cccc(NCCC4CC5(C4)CN(C[C@H]4CC[C@H](n6cc7cc(NC(=O)c8cccc(C(F)(F)F)n8)c(OC8CC8)cc7n6)CC4)C5)c3C2=O)C(=O)N1 (some centres unmarked)
**Result** > 200 nM

**Query** Tell me measured DC50 for Cn1c(=O)n(C2CCC(=O)NC2=O)c2cccc(C3CCN(C[C@H]4CC[C@H](N5Cc6cc(NC(=O)c7cccc(C(F)(F)F)n7)c(N7C[C@H]8C[C@@H]7CO8)cc6C5=O)CC4)CC3)c21 (some centres unmarked) please.
**Result** < 10 nM

**Query** Supply measured DC50 of CC(C)(O)c1cc2nc([C@H]3CC[C@H](C(=O)N4CCN(CCCNc5cccc6c5C(=O)N(C5CCC(=O)NC5=O)C6=O)CC4)CC3)sc2cc1NC(=O)c1cncc(C#N)c1 (some centres unmarked) in your reply.
**Result** 50 to 100 nM
